# assayedSystem: PKCg (Homo sapiens)
# protocolSummary: Kinase Selectivity Assay (CEREP, HTRF)
# Format: biochemical
# conditionSummary: read-out: % Inhibition at 10 μM Concentration, PKCgamma
Listed molecules paired with reported inhibition at 10 µM
Note: unit % is implicit; provide only the numeric part.

O=C1Nc2ccccc2/C1=C\c1ccc2c(/C=C/c3ccccc3Cl)n[nH]c2c1: 3
O=C1Nc2ccccc2C1=Cc1ccc2c(/C=C/c3ccccn3)n[nH]c2c1 (mixture of isomers): 0
COc1ccc2c(c1)C(=Cc1ccc3c(-c4ccc(N5CCN(C)CC5)nc4)n[nH]c3c1)C(=O)N2 (mixture of isomers): 0
O=C1Nc2ccccc2/C1=C\c1ccc2cn[nH]c2c1: -6

Read the next record carefully.
Which inhibition at 10 µM is reported for this molecule? O=C1Nc2ccccc2/C1=C\c1ccc2[nH]nnc2c1
9

###

# assayedSystem: PKCb1 (Homo sapiens, UniProt P05771)
# protocolSummary: Kinase Selectivity Assay (CEREP, HTRF)
# Format: biochemical
# conditionSummary: read-out: % Inhibition at 10 μM Concentration, PKCbeta 1
measurementName: inhibition at 10 µM (%)
Note: unit % is implicit; provide only the numeric part.

Which inhibition at 10 µM is reported for this molecule? O=C1Nc2ccccc2/C1=C\c1ccc2[nH]nnc2c1
1

###

# assayedSystem: PDK1 (Homo sapiens, UniProt O15530)
# Sequence (O15530 whole entry): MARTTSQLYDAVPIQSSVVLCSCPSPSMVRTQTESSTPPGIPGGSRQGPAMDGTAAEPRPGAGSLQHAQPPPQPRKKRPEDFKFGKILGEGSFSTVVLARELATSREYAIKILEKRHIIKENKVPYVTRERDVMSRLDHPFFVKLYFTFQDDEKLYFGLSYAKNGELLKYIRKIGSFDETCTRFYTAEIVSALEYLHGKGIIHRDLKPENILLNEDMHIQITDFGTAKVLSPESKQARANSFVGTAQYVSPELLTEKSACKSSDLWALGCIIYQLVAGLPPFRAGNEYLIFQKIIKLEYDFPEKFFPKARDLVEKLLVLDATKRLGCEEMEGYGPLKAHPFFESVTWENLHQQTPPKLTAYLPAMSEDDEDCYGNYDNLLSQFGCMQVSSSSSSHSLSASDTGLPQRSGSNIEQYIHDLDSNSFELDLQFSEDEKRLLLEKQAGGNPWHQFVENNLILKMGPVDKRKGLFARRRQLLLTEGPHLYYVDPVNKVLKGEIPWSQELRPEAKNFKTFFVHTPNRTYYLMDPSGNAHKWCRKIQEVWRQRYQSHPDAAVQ
# protocolSummary: Kinase Selectivity Assay (CEREP, HTRF)
# Type: biochemical
# conditionSummary: read-out: % Inhibition at 10 μM Concentration, PDK1
measurementName: inhibition at 10 µM
Output should be the measured figure followed by the unit it is expressed in.

Record excerpt, results attached:
COc1ccc2c(c1)C(=Cc1ccc3c(-c4ccc(N5CCN(C)CC5)nc4)n[nH]c3c1)C(=O)N2 (mixture of isomers): 73%
O=C1Nc2ccccc2/C1=C\c1ccc2c(/C=C/c3ccccc3Cl)n[nH]c2c1: 1%
O=C1Nc2ccccc2/C1=C\c1ccc2[nH]nnc2c1: -3%
O=C1Nc2ccccc2C1=Cc1ccc2c(/C=C/c3ccccn3)n[nH]c2c1 (mixture of isomers): 4%

Read the next record carefully.
Which inhibition at 10 µM is reported for this compound? O=C1Nc2ccccc2/C1=C\c1ccc2cn[nH]c2c1
2%

###

# assayedSystem: PKCa (Homo sapiens)
# protocolSummary: Kinase Selectivity Assay (CEREP, HTRF)
# Type: biochemical
# conditionSummary: read-out: % Inhibition at 10 μM Concentration, PKCalpha
measurementName: inhibition at 10 µM (%)
Note: unit % is implicit; provide only the numeric part.

Form: Entry = O=C1Nc2ccccc2C1=Cc1ccc2c(/C=C/c3ccccn3)n[nH]c2c1 (mixture of isomers) | System = PKCa (Homo sapiens) | inhibition at 10 µM = ____
2

Please give the result for O=C1Nc2ccccc2/C1=C\c1ccc2c(/C=C/c3ccccc3Cl)n[nH]c2c1 too.
-1

Please give the result for O=C1Nc2ccccc2/C1=C\c1ccc2cn[nH]c2c1 too.
0

Please give the result for O=C1Nc2ccccc2/C1=C\c1ccc2[nH]nnc2c1 too.
9

Please give the result for COc1ccc2c(c1)C(=Cc1ccc3c(-c4ccc(N5CCN(C)CC5)nc4)n[nH]c3c1)C(=O)N2 (mixture of isomers) too.
9

###

# assayedSystem: PKCb2 (Homo sapiens)
# Sequence (P05771 1-673 isoform P05771-2): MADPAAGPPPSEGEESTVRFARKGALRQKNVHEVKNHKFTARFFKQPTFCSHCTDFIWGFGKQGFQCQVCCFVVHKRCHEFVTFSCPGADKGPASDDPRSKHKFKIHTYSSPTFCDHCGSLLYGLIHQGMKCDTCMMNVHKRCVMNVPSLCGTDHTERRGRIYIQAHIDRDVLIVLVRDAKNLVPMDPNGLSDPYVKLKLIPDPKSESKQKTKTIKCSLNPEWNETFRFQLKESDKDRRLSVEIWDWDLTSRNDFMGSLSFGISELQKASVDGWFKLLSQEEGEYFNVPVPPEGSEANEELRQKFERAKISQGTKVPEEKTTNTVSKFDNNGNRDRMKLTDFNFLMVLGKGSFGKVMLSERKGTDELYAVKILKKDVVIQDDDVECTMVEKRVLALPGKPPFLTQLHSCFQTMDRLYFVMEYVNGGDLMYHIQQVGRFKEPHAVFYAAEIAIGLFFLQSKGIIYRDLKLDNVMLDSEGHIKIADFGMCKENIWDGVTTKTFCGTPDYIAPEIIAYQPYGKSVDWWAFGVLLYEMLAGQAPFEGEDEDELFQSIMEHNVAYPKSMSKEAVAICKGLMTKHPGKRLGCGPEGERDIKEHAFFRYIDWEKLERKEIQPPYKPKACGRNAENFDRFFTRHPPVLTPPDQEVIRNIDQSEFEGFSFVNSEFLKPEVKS
# protocolSummary: Kinase Selectivity Assay (CEREP, HTRF)
# Assay type: biochemical
# conditionSummary: read-out: % Inhibition at 10 μM Concentration, PKCbeta 2
measurementName: inhibition at 10 µM (%)
Note: unit % is implicit; provide only the numeric part.

Form: Entry = O=C1Nc2ccccc2/C1=C\c1ccc2[nH]nnc2c1 | System = PKCb2 (Homo sapiens) | inhibition at 10 µM = ____
0

Please give the result for COc1ccc2c(c1)C(=Cc1ccc3c(-c4ccc(N5CCN(C)CC5)nc4)n[nH]c3c1)C(=O)N2 (mixture of isomers) too.
37

###

# assayedSystem: PLK2 (Homo sapiens)
# Construct: purchased Invitrogen PV4204
# Sequence (Q9NYY3 whole entry): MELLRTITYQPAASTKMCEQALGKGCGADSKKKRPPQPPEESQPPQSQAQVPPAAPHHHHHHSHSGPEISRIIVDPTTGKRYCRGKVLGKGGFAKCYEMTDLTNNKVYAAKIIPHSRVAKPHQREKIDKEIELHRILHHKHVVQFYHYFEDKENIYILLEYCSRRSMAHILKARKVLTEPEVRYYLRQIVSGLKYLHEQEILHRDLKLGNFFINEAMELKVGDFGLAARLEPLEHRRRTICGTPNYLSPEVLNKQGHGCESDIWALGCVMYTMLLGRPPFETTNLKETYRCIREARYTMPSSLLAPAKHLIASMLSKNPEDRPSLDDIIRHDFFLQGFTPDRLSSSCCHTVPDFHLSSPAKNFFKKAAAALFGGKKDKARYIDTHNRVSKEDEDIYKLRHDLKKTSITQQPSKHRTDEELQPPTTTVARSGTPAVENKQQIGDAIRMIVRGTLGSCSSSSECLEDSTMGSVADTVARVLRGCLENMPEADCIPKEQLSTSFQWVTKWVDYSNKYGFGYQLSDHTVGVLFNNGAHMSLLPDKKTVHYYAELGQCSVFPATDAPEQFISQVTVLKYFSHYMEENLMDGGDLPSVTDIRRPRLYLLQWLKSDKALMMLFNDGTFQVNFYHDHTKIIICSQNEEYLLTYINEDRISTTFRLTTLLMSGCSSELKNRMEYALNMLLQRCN
# protocolSummary: PLK2 Inhibition Assay (Z-Lyte)
# Type: biochemical
# conditionSummary: 10 μM compound; read-out: PLK2 relative inhibition percentage at a dose of 10 μM
measurementName: inhibition at 10 µM

O=C1Nc2ccccc2/C1=C\c1cc(-c2ccncc2)c2cn[nH]c2c1 [Example A54a]: > 50%

Which inhibition at 10 µM is reported for this compound? Cc1ccc2c(c1)/C(=C\c1ccc3c(/C=C/c4ccncc4)n[nH]c3c1)C(=O)N2
< 50%

Please give the result for O=C1Nc2ncc(Br)cc2C1=Cc1ccc2cn[nH]c2c1 (racemic) too.
> 50%

Please give the result for O=C1Nc2ccccc2C1=Cc1ccc2c(/C=C/c3cnccn3)n[nH]c2c1 (mixture of isomers) too.
< 50%

Please give the result for CC(=O)Nc1cccc2c1NC(=O)/C2=C/c1ccc2cn[nH]c2c1 too.
> 50%

Please give the result for O=C1Nc2ncccc2/C1=C\c1ccc2cn[nH]c2c1 too.
> 50%

###

Listed compounds paired with reported inhibition at 10 µM
# assayedSystem: FGFR4 kinase (Homo sapiens)
# Construct: CEREP, France (ran the assays)
# Sequence (P22455 22-802): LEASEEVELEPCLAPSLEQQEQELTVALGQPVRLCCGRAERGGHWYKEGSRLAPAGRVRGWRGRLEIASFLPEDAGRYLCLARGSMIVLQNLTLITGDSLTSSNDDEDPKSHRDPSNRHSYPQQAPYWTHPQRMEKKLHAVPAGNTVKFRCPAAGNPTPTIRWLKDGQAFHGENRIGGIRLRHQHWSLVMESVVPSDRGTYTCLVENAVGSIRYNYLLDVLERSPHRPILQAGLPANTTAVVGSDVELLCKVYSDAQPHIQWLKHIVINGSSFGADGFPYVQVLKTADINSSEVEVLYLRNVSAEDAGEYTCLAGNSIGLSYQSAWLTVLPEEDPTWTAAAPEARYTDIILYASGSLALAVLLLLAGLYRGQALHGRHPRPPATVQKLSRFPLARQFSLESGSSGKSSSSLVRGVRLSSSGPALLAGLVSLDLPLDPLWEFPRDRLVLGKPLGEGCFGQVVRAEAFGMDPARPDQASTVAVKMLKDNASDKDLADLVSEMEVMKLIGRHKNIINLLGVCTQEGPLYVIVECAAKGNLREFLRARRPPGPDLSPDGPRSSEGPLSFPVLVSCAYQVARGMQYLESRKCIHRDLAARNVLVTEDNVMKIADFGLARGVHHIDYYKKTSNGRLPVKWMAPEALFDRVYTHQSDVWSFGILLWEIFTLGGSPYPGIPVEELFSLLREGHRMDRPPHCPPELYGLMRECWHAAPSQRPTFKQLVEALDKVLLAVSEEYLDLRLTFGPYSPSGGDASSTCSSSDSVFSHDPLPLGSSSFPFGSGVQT
# protocolSummary: Kinase Selectivity Assay (CEREP, HTRF)
# Type: biochemical
# conditionSummary: read-out: % Inhibition at 10 μM Concentration, FGFR4
# Experimental: kinase, ROCK2, RSK2, Src kinase, Syk, and TRKA. The % Inhibition was determined
Output should be the measured figure followed by the unit it is expressed in.

Record excerpt, results attached:
O=C1Nc2ccccc2/C1=C\c1ccc2cn[nH]c2c1: -4%
O=C1Nc2ccccc2C1=Cc1ccc2c(/C=C/c3ccccn3)n[nH]c2c1 (mixture of isomers): 38%
O=C1Nc2ccccc2/C1=C\c1ccc2c(/C=C/c3ccccc3Cl)n[nH]c2c1: 6%
O=C1Nc2ccccc2/C1=C\c1ccc2[nH]nnc2c1: 18%

Read the next record carefully.
Which inhibition at 10 µM is reported for this compound? COc1ccc2c(c1)C(=Cc1ccc3c(-c4ccc(N5CCN(C)CC5)nc4)n[nH]c3c1)C(=O)N2 (mixture of isomers)
30%

###

# assayedSystem: Src kinase (Homo sapiens, UniProt P12931)
# protocolSummary: Kinase Selectivity Assay (CEREP, HTRF)
# Type: biochemical
# conditionSummary: read-out: % Inhibition at 10 μM Concentration, Src
measurementName: inhibition at 10 µM (%)
Note: unit % is implicit; provide only the numeric part.

Which inhibition at 10 µM is reported for this molecule? O=C1Nc2ccccc2/C1=C\c1ccc2c(/C=C/c3ccccc3Cl)n[nH]c2c1
0

Please give the result for O=C1Nc2ccccc2/C1=C\c1ccc2cn[nH]c2c1 too.
-9

###

# assayedSystem: FGFR1
# protocolSummary: Millipore kinase assay, radiolabelled phosphopeptide filter binding, IC50 estimate
# conditionSummary: estimated from inhibition at three compound concentrations; ATP at the Km
measurementName: IC50

O=C1Nc2ccccc2C1=Cc1ccc2c(/C=C/c3ccccn3)n[nH]c2c1 (mixture of isomers): < 5 µM

Which IC50 is reported for this compound? O=C1Nc2ccccc2/C1=C\c1ccc2c(/C=C/c3ccncc3)n[nH]c2c1
< 5 µM

Please give the result for COc1ccc2c(c1)C(=Cc1ccc3c(-c4ccc(N5CCN(C)CC5)nc4)n[nH]c3c1)C(=O)N2 (mixture of isomers) too.
< 5 µM

Please give the result for CN(C)Cc1ccc(/C=C/c2n[nH]c3cc(C=C4C(=O)Nc5ccccc54)ccc23)cc1 (mixture of isomers) [Example A106, 2,2,2-trifluoroacetate] too.
< 5 µM

###

Listed molecules paired with reported inhibition at 10 µM
# assayedSystem: c-Met kinase (Homo sapiens)
# Construct: CEREP, France (ran the assays)
# Sequence (P08581 25-1390): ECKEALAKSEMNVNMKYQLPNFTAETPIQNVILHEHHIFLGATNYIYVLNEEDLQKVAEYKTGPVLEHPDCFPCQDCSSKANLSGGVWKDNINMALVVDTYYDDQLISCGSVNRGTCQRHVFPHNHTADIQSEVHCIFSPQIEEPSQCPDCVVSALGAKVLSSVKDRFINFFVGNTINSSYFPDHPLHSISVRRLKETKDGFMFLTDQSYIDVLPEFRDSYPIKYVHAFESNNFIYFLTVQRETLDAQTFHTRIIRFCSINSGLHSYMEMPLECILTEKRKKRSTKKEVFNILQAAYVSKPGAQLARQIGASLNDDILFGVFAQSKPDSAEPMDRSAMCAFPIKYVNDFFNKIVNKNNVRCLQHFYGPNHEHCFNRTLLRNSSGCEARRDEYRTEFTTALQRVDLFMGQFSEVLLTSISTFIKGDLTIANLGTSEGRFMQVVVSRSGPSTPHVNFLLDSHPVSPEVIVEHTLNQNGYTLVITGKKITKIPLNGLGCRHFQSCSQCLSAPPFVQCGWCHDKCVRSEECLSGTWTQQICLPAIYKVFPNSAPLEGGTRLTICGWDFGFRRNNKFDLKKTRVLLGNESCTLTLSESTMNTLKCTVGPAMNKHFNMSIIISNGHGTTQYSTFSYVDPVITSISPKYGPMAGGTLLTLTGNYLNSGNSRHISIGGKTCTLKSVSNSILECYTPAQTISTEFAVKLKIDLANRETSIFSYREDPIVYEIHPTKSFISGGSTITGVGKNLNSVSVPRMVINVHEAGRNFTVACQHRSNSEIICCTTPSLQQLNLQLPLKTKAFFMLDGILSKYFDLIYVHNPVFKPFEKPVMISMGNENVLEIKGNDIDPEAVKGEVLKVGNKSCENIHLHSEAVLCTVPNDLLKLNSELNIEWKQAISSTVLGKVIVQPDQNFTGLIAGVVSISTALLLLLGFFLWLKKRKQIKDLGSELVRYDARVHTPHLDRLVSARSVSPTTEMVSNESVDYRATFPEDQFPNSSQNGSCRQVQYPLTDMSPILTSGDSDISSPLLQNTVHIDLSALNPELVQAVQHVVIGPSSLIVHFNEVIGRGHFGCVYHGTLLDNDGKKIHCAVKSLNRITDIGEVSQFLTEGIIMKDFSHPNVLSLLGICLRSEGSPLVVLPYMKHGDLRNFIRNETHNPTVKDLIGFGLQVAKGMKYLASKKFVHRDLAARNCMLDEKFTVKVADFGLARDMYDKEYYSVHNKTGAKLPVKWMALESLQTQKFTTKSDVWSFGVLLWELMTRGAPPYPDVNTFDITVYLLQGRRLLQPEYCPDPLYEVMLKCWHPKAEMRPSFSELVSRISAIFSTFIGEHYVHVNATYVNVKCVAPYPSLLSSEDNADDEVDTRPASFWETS
# protocolSummary: Kinase Selectivity Assay (CEREP, HTRF)
# Format: biochemical
# conditionSummary: read-out: % Inhibition at 10 μM Concentration, c-Met
Note: unit % is implicit; provide only the numeric part.

Record excerpt, results attached:
O=C1Nc2ccccc2/C1=C\c1ccc2[nH]nnc2c1: -20
O=C1Nc2ccccc2C1=Cc1ccc2c(/C=C/c3ccccn3)n[nH]c2c1 (mixture of isomers): 35
O=C1Nc2ccccc2/C1=C\c1ccc2c(/C=C/c3ccccc3Cl)n[nH]c2c1: 0
O=C1Nc2ccccc2/C1=C\c1ccc2cn[nH]c2c1: 2

Read the next record carefully.
Which inhibition at 10 µM is reported for this molecule? COc1ccc2c(c1)C(=Cc1ccc3c(-c4ccc(N5CCN(C)CC5)nc4)n[nH]c3c1)C(=O)N2 (mixture of isomers)
28

###

# assayedSystem: RSK2 (Homo sapiens, UniProt P51812)
# Sequence (P51812 whole entry): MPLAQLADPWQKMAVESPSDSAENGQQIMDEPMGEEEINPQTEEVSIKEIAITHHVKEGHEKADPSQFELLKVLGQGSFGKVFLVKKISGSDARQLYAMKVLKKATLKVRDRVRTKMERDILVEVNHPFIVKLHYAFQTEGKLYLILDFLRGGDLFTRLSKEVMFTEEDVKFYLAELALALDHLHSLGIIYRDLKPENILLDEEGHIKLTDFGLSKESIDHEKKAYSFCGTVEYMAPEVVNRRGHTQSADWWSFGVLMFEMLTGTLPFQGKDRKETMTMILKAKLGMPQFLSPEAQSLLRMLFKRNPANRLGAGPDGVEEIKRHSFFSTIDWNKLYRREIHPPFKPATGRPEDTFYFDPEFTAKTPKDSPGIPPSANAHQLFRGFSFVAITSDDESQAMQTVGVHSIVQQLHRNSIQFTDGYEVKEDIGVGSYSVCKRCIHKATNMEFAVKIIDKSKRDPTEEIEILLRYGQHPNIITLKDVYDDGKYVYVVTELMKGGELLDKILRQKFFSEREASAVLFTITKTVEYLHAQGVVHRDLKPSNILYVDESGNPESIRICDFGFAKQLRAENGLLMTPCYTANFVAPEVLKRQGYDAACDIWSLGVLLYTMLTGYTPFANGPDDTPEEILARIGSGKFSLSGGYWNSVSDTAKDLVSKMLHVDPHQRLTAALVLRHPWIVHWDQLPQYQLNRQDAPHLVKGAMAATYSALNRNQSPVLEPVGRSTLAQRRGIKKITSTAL
# protocolSummary: Kinase Selectivity Assay (CEREP, HTRF)
# Format: biochemical
# conditionSummary: read-out: % Inhibition at 10 μM Concentration, RSK2
Listed compounds paired with reported inhibition at 10 µM
Note: unit % is implicit; provide only the numeric part.

Record excerpt, results attached:
O=C1Nc2ccccc2C1=Cc1ccc2c(/C=C/c3ccccn3)n[nH]c2c1 (mixture of isomers) [Example A41]: 38
O=C1Nc2ccccc2/C1=C\c1ccc2cn[nH]c2c1 [Example A5]: 1
COc1ccc2c(c1)C(=Cc1ccc3c(-c4ccc(N5CCN(C)CC5)nc4)n[nH]c3c1)C(=O)N2 (mixture of isomers) [Example A97]: 37

Which inhibition at 10 µM is reported for this compound? O=C1Nc2ccccc2/C1=C\c1ccc2c(/C=C/c3ccccc3Cl)n[nH]c2c1 [Example A60]
0

Please give the result for O=C1Nc2ccccc2/C1=C\c1ccc2[nH]nnc2c1 [Example A1] too.
4
